TEST_SUMMARY: yeast display, Sf9 membrane polyspecificity reagent, FACS + sequencing; frameworks hold sequencing errors
RECORDED_METRIC: polyreactivity (PSR sort gate)

Worked cases, polyreactivity (PSR sort gate) given:
INSERT INTO measurements (sequence_text, recorded_metric, result) VALUES
  ('QVHLEESGGGLVQAGGSLRLSCAASGLTFQWNAMGWYRQAPGKERELVAAISYSGGSTYYAYSVKGRFTISRDNAKYCVYLQMKSLKPEDTAVYYCAARTYSQWLQRYRLLGQGTQVTVSS', 'polyreactivity (PSR sort gate)', 'high polyreactivity'),
  ('QVQLVESGGGLDQAGGSLRLSCAASGFTLDYYAMGWYRQAPGKERELVAAISWSGGRTYYADSVKGRFTISRDNAKNTVYLQMNSLKPEDTAVYYCNASPYGRKYGILADGDYWGQGTQVTVSS', 'polyreactivity (PSR sort gate)', 'high polyreactivity'),
  ('QVQLVESGGGLVQAGGSLRLSCAASGFIFDWYAMGWYRQAPGKERELVAAINESGGDTYYADSVKGRFTISRDNAKNTVYLQMNSLKPEDTAVYYCAARTYHRYDYWGQGTQVTVSS', 'polyreactivity (PSR sort gate)', 'high polyreactivity'),
  ('QVQLVESGGGLVQAGGSLRLSCAASGPTFTYNAMGWYRQAPGKERELVATINSVDSTYADSVKGRFTISRDNAKNTVYLQMNSMKPEDTAVYYCNAGFPLSLWLGDYWGQGTQVTVSS', 'polyreactivity (PSR sort gate)', 'low polyreactivity'),
  ('QVQLVESGGGLVQAGGSLRLSCAASGSILTGNAMGWYRQAPGKERELVAGITVGGTSTYYADSVKGRFTISRDNAKNTVYLQMNSLKPEDTAVYYCAAGYRSYWGVYDFDYWGQGTQVTVSS', 'polyreactivity (PSR sort gate)', 'low polyreactivity'),
  ('QVQLVESGGGLVPAGGSLRLRCAASGSTFPYYAMGGYRQAPGKERELVAAIRRSGANTYYADSVKGRFTISRDNAKNTVYLQMNSLKPEDTAVYYCNVEYVISWWLYDYWGQGTQVTVSS', 'polyreactivity (PSR sort gate)', 'low polyreactivity');

Exercise: # get_value(readout='polyreactivity (PSR sort gate)', item= QVQLVESGGGLVQAGGSLRLSCAASGRIFTWYAKGWYRQAPGKERELVAAISWSGGRTYYADSVKGRFTISRDNAKNTVYLQMNSLKPEDTAVYYCNAVPSVRWRYDYWGQGTQVTVSS )
Solution: high polyreactivity

Exercise: Name the reported polyreactivity (PSR sort gate) value associated with the sequence QVQLVESGGGLVQAGGSLRLSCAASGRIFYPYAMGWYRQAPGKERELVAAIDWTAGGTYYADSVKGRFTISRDNAKNTVYLQMNSLKPEDTAVYYCAAEYYIEANGDYWGLGTQVTVSS
Solution: low polyreactivity

Exercise: Which polyreactivity (PSR sort gate) is listed for QVQRVESGGGLVQAGGRLLLSCAASGSIFPPNAMGWYREAPGKERELVAAISGSGRTYYADSVKGRFTISRDNAKNTVYLQMNSLKPEDTAVYYCAARQQRRPTTRDFGFWGQGTQVTVSS ?
Solution: high polyreactivity

Exercise: Any idea what polyreactivity (PSR sort gate) was measured for QVQLVESGGGLVQAGGSLRLTCAASGSIFFPNTMGWSRQAPGKERELVASISYSGGSTYYADSVKGRFTISRDIAKNSVYLQMNSLKPEDTAVYYCARTYWGDRYQFSSNGYEYWGQGTQVTVSS ?
Solution: high polyreactivity

Exercise: Reported polyreactivity (PSR sort gate) for QLQLVESGGGLVQAGGSLRLSCAASGFIFPDYAMGWYRQAPGTERELVAAMRIRDGSTYYADSVKGRFTISRDNAKNTVYLQMNSLKPEAPAVYYCAVRSSYGYSDTNYIMYYWGQGTQVTVSS : what is it?
Solution: low polyreactivity

Exercise: Requested read-out: polyreactivity (PSR sort gate). Entry: QVQLVESGGGLVQAGGSLRLSCAASGSNFVKYVMGWYRQAPGKERELDAAITWRGGRTYYADSVKGRFTISRDNEKNTVYLQMNSLKPEDTAVYYCAAYDQSLYGRRYDYWGQGTQVTVSS
Solution: high polyreactivity

Exercise: For the sequence QVQLVESGGGLVQAGGSLRLSCAASGITFWKYTMGWYRQAPGKERELVAAITGRGGSTYYADSVKGRFTISRDNAMNTVYLQMNRLKPEDTAVYYCAAELRPGYRSSYGLIYDYWGQGTQVTVSS , what polyreactivity (PSR sort gate) is on record?
Solution: low polyreactivity

Exercise: Which polyreactivity (PSR sort gate) is reported for this sequence? QVQLVESGGGLVQAGGSLRLSCAASGFTCVRYAMGWYRPAPGKEREFVASISARGGNTFYADSVKGRFTISRDHAKNTVYLQMNSLKPEDTAVYYCAKRGPYGTGYGYWGQGTQLTVSS
Solution: high polyreactivity

Exercise: For the sequence QVQLVESGVGLVQAGGSLRLSCAASGRIFRWYPMGWYRQAPGKERELVASITWNGGSTYYADSVKGRFTISRDNAKNTVYLQMKSLKPEDTAVYYCAVPFYRGPEMGYWGQGTQVTVSS , what polyreactivity (PSR sort gate) is on record?
Solution: high polyreactivity

Exercise: Entry QVQLVESGGGLVQAGGSLRLSCAASGSTFVYYAMGGYRQAPGKERELDAAITSSGVRTYYADSVKGRFTISRDNAKNTVYLQMNSLKPEVTAVYYCAKRSTRLYSFTYQGYGYWGQGTQVTVSS : reported polyreactivity (PSR sort gate) = ?
Solution: high polyreactivity

Exercise: Reported polyreactivity (PSR sort gate) for QVQLQESGGGLVQAGGSLCLSCAASGTIFFDGDMGWYRQAPCKEREFVAAINPGGSAYYADSVKGRLPLAAITHTVYLQMNSLKPEDTAVYYCAAKLFDVYGYYYWGQGTHVTVSS : what is it?
Solution: low polyreactivity

Exercise: Recorded polyreactivity (PSR sort gate) of QVQLVESGGGLVQAGGSLRLSCAASGSTLRRYAMGWDRQAPGKERELVAAISGSGDSTYYADSVKGRFTISRDNAKNTVYLQMNSLKPEDTAVYYCNAVYAFNGYDYWGQGTQVTVSS , please.
Solution: low polyreactivity

Exercise: # lookup: polyreactivity (PSR sort gate) of HVQLVESGGGLVQAGGSLRLSCAASGFIFVSYAMGWYRQAPGKERELVAAITWSTTSTYYADSVKGRFTISRDNAKNTVYLQMNSLKPEDTAVYYCAKYNFQYKHDYWGQGTQVTVSS
Solution: low polyreactivity

Exercise: Recorded polyreactivity (PSR sort gate) for QVQLVESGGGLVQAGGSLRLSCAASGSTFILYAMGWYRQAPGKERELVAAISSDGSTYYADSVKGRFTISRDNAKNTVYLQMNSLKPEDTAVYYCAAYGYDADTGYDYWGLGTQVTVSS , please?
Solution: low polyreactivity

Exercise: Value lookup for polyreactivity (PSR sort gate); key = QVQLVESGGGLVQAGGSLRLSSAASGITFATYAMGWYRQAPGKERELVAAISSSTGSTYYADSVKGRFTISRDNAKNTVYLQMNSLKPEDTAVYYCAAVRTQQYDYWGQGTQVTVSS
Solution: low polyreactivity

* * *

TEST_SUMMARY: yeast display, Sf9 membrane polyspecificity reagent, FACS + sequencing; frameworks hold sequencing errors
RECORDED_METRIC: polyreactivity (PSR sort gate)

INSERT INTO results (sequence_text, recorded_metric, result) VALUES
  ('QVQLVESGGGLVQAGGSLRLSCAASGRIFYPYAMGWYRQAPGKERELVASITSGGGTYYADSVKGRFTISRDNAKNSVYLQMNSLKPEDTAVYYCAAKYYTSWIRYDYWGQGTQVTVSS', 'polyreactivity (PSR sort gate)', 'low polyreactivity'),
  ('QVQLVESGGGLVQAGGSLRLSCAASGNTYLYYGMGWYRQSPGKERDLVAAITQSGGTTYYADSVKGRFTISRDNAKNTVYLQLNSLKQEDTAVYYCAATRYYYYWYVYDDRGDYWGQGTQVTVSS', 'polyreactivity (PSR sort gate)', 'low polyreactivity');

* * *

TEST_SUMMARY: yeast display, Sf9 membrane polyspecificity reagent, FACS + sequencing; frameworks hold sequencing errors
RECORDED_METRIC: polyreactivity (PSR sort gate)

INSERT INTO assay_data (sequence_text, recorded_metric, result) VALUES
  ('QVQILESGGGLVQAGGSLRVSCAASGSTFSYYAMGWYRQAPGKERELVAAIRSSGGSTYYADSVKGRFTISRDNAKNTVYLQMNSLKPEDTAVYYCAARRSVGYRRYDYWGQGTQVTVSS', 'polyreactivity (PSR sort gate)', 'high polyreactivity'),
  ('QVQHVESGGGLVQAGGSLRLSCAASGSTFYRYAMGWYRQAPGNERELVAAISASGGSTYYADSVKGRFTISRDNAKNTVYLQMNSLKPEDTAVYYCNRDRRYRNDYWGQGTQVTVSS', 'polyreactivity (PSR sort gate)', 'high polyreactivity'),
  ('QVQLVESAGGLVQAGGSLRYSCAASGRTIYRYAMGWYRQAPGKERELVAAINRSTGRTYYADSVKGRFTISRDNAKNTVYLQMTSLNPEDTAVYYCARSDKKYPQASSREDYGYWGQGTQVTVSS', 'polyreactivity (PSR sort gate)', 'high polyreactivity'),
  ('QVQLVESGGGLVQAGGSLRLSCAASGGIFKRNTMGWYRLAPGKERELVAAISRSGGSTYYADSVKGRFTISRDNAKNTVYLQMNSLKPEDTAVYYCARRFPYNYYVYGEDYWGQGTQVTVSS', 'polyreactivity (PSR sort gate)', 'high polyreactivity');
